Test system: rat hepatocytes
test_name: Hepatocyte assay to determine the metabolic stability
Type: in vitro ADME
protocol_conditions: after incubation with rat hepatocytes
quantity_name: CLblood, calculated blood clearance (well stirred model)

INSERT INTO assay_data (compound, result_value) VALUES
  ('CCS(=O)(=O)c1cc(C#N)ccc1[C@H]1NC(=O)N(c2cccc(C(F)(F)F)c2)C(C)=C1C#N [Example 127]', '3.3 mL/min/kg'),
  ('CC1=C(C#N)[C@@H](c2ccc(C#N)cc2S(C)(=O)=O)N(CC(N)=O)C(=O)N1c1cccc(C(F)(F)F)c1 [Example 22]', '3.3 mL/min/kg'),
  ('CC1=C(C#N)[C@@H](c2ccc(C#N)cc2S(C)(=O)=O)N(C(=O)NCCO)C(=O)N1c1cccc(C(F)(F)F)c1 [Example 10]', '25 mL/min/kg'),
  ('CC1=C(C#N)[C@@H](c2ccc(C#N)cc2S(C)(=O)=O)N(S(=O)(=O)C2CC2)C(=O)N1c1cccc(C(F)(F)F)c1 [Example 32]', '1.7 mL/min/kg'),
  ('CC1=C(C#N)[C@@H](c2ccc(C#N)cc2S(C)(=O)=O)N(S(C)(=O)=O)C(=O)N1c1cccc(C(F)(F)F)c1 [Example 27]', '6.7 mL/min/kg'),
  ('CC1=C(C(N)=O)[C@@H](c2ccc(C#N)cc2S(C)(=O)=O)NC(=O)N1c1cccc(C(F)(F)F)c1 [Example 5]', '0 mL/min/kg'),
  ('CN1CC2=C(C1=O)[C@@H](c1ccc(C#N)cc1S(C)(=O)=O)N(S(C)(=O)=O)C(=O)N2c1cccc(C(F)(F)F)c1 [Example 36]', '6.7 mL/min/kg');
